target.under.test: protein-protein interaction between Kras and SOS1 (biotin-tagged human Kras loaded with GDP, His-tagged human SOS1) (Homo sapiens (Human), UniProt P01116, G12D)
experiment.notes: Protein-protein interaction inhibition between Kras and SOS1 (KrasG12D-SOS PPI) using AlphaScreen
Type: biochemical
run.parameters: AlphaScreen; biotin-tagged human Kras loaded with GDP, His-tagged human SOS1; read-out: KRAS G12D-SOS PPI IC50
Numbered stars: 1 amine (or outer) side, 2 acyl side, 3 side chain; on linkers, the order of the positions; unused ones are H or OH. Bridge positions count the residues as written; N and C are the ends. Square brackets hold non-standard residues; d marks the D form. Peptide text beside a SMILES is read from it. * marks the point of attachment. hPhe(3-Cl-4-CF3) = N[C@@H](CCc1ccc(C(F)(F)F)c(Cl)c1)C(=O)O; NEtPhe(4-CF3) = CCN[C@@H](Cc1ccc(C(F)(F)F)cc1)C(=O)O; X65 = O=C([C@H](CCCc1ccc(C(F)(F)F)cc1)N[*:1])[*:2]; NMedβ3hAla = C[C@H](CC(=O)[*:2])N(C)[*:1]; NMeGly(cPent) = CN[C@H](C(=O)O)C1CCCC1; NMeAla(cPr) = CN[C@@H](CC1CC1)C(=O)O; NMeCha = CN[C@@H](CC1CCCCC1)C(=O)O; Hyp = O=C(O)[C@@H]1C[C@@H](O)CN1; NMeChg = CN[C@H](C(=O)O)C1CCCCC1; NMeI = CC[C@H](C)[C@H](NC)C(=O)O; NMeD = CN[C@@H](CC(=O)O)C(=O)O; NMeL = CN[C@@H](CC(C)C)C(=O)O; NMeNle = CCCC[C@H](NC)C(=O)O; NMeV = CN[C@H](C(=O)O)C(C)C; d(β3hA) = C[C@@H](N)CC(=O)O; NMeA = CN[C@@H](C)C(=O)O; Nle = CCCC[C@H](N)C(=O)O; Piperidide = C1CCN(*)CC1; Ac5c = NC1(C(=O)O)CCCC1; Aze = O=C(O)[C@@H]1CCN1; Ac4c = NC1(C(=O)O)CCC1; NEtG = CCNCC(=O)O; Sar = CNCC(=O)O; OAll = C=CCO*
Could you please report measured IC50 for the items listed next?
Give bare numbers, in nM.

>>> experimental_result("CCCC[C@@H]1NC(=O)[C@H](CC(C)C)N(C)C(=O)C[C@@H](C(=O)N2CCCCC2)N(C)C(=O)[C@H](C(C)C)N(C)C(=O)C2(CCCC2)NC(=O)[C@@H]2CCCN2C(=O)[C@H](CCc2ccc(C(F)(F)F)c(Cl)c2)NC(=O)CN(C)C(=O)[C@H](CC2CCCCC2)N(C)C(=O)[C@@H]2CCN2C(=O)[C@H](C)N(C)C1=O [Compound 1823] ([NMeL][Nle][NMeA][Aze][NMeCha][Sar][hPhe(3-Cl-4-CF3)]P[Ac5c][NMeV][NMeD]-Piperidide; lactam N-11)")
59
>>> experimental_result("C=CCOC(=O)C[C@H]1C(=O)NC2(CCCC2)C(=O)N(C)[C@@H](C(C)C)C(=O)N(C)[C@H](C(=O)N2CCCCC2)CC(=O)N(C)[C@@H](C)C(=O)N[C@@H]([C@@H](C)CC)C(=O)N(C)CC(=O)N(C)CC(=O)N(C)[C@@H](CC2CCCCC2)C(=O)N(C)CC(=O)N[C@@H](CCc2ccc(C(F)(F)F)c(Cl)c2)C(=O)N1C [Compound 792] ([NMeA]I[Sar][Sar][NMeCha][Sar][hPhe(3-Cl-4-CF3)][NMeD](OAll)[Ac5c][NMeV][NMeD]-Piperidide; lactam N-11)")
3.5
>>> experimental_result("CC[C@H](C)[C@@H]1NC(=O)[C@H](CC(C)C)N(C)C(=O)C[C@@H](C(=O)N2CCCCC2)N(C)C(=O)[C@H](C2CCCCC2)N(C)C(=O)C2(CCCC2)NC(=O)CN(CC)C(=O)[C@H](CCc2ccc(C(F)(F)F)c(Cl)c2)NC(=O)CN(C)C(=O)[C@H](CC2CCCCC2)N(C)C(=O)CN(C)C(=O)CN(C)C1=O [Compound 160] ([NMeL]I[Sar][Sar][NMeCha][Sar][hPhe(3-Cl-4-CF3)][NEtG][Ac5c][NMeChg][NMeD]-Piperidide; lactam N-11)")
1

Please supply IC50 for each of the following items, keeping them in order.
1. CC[C@H](C)[C@@H]1NC(=O)[C@H](C)N(C)C(=O)C[C@@H](C(=O)N2CCCCC2)N(C)C(=O)[C@H](C2CCCCC2)N(C)C(=O)C2(CCCC2)NC(=O)[C@@H]2CCCN2C(=O)[C@H](CCCc2ccc(C(F)(F)F)cc2)NC(=O)CN(C)C(=O)[C@H](CC2CCCCC2)N(C)C(=O)CN(C)C(=O)CN(C)C1=O [Compound 2055] ([NMeA]I[Sar][Sar][NMeCha][Sar][X65]P[Ac5c][NMeChg][NMeD]-Piperidide; lactam N-11)
2. CCCC[C@H]1C(=O)N2CC[C@H]2C(=O)N(C)[C@@H](CC2CCCCC2)C(=O)N(C)CC(=O)N[C@@H](CCc2ccc(C(F)(F)F)c(Cl)c2)C(=O)N2CCC[C@H]2C(=O)NC2(CCCC2)C(=O)N(C)[C@@H](C(C)C)C(=O)N[C@H](C)CC(=O)N(C)[C@@H](CC(C)C)C(=O)N[C@@H]([C@@H](C)CC)C(=O)N1C [Compound 1548] (cyclo([Ac5c][NMeV][d(β3hA)][NMeL]I[NMeNle][Aze][NMeCha][Sar][hPhe(3-Cl-4-CF3)]P))
3. CCO[C@@H]1C[C@H]2C(=O)NC3(CCC3)C(=O)N(C)[C@@H]([C@@H](C)CC)C(=O)N(C)[C@H](C)CC(=O)N(C)[C@@H](CC(C)C)C(=O)N[C@@H]([C@@H](C)CC)C(=O)N(C)[C@@H](C)C(=O)N3CC[C@H]3C(=O)N(CC)[C@@H](Cc3ccc(C(F)(F)F)cc3)C(=O)N(C)CC(=O)N[C@@H](CCc3ccc(C(F)(F)F)c(Cl)c3)C(=O)N2C1 [Compound 547] (cyclo([Ac4c][NMeI][NMedβ3hAla][NMeL]I[NMeA][Aze][NEtPhe(4-CF3)][Sar][hPhe(3-Cl-4-CF3)][Hyp](Et)))
4. CC[C@H](C)[C@@H]1NC(=O)[C@H](CC(C)C)N(C)C(=O)C[C@@H](C(=O)N2CCCCC2)N(C)C(=O)[C@H](CC(C)C)NC(=O)C(C)(C)N(C)C(=O)[C@@H]2CCCCCC[C@@H](C(=O)N(C)CC(=O)N[C@@H](Cc3cccc(I)c3)C(=O)N2)N(C)C(=O)CN(C)C(=O)CN(C)C1=O
5. CC[C@H](C)[C@@H]1NC(=O)[C@H](C2CCCC2)N(C)C(=O)C[C@@H](C(=O)N2CCCCC2)N(C)C(=O)[C@H](C(C)C)N(C)C(=O)C2(CCCC2)NC(=O)[C@@H]2CCCN2C(=O)[C@H](CCc2ccc(C(F)(F)F)c(Cl)c2)NC(=O)CN(C)C(=O)[C@H](CC2CCCCC2)N(C)C(=O)[C@@H]2CCN2C(=O)[C@H](C)N(C)C1=O [Compound 225] ([NMeGly(cPent)]I[NMeA][Aze][NMeCha][Sar][hPhe(3-Cl-4-CF3)]P[Ac5c][NMeV][NMeD]-Piperidide; lactam N-11)
6. CC[C@H](C)[C@@H]1NC(=O)[C@H](CC(C)C)N(C)C(=O)C[C@@H](C(=O)N2CCCCC2)N(C)C(=O)[C@H](C2CCCCC2)N(C)C(=O)C2(CCCC2)NC(=O)[C@H](CC2CC2)N(C)C(=O)[C@H](CCc2ccc(C(F)(F)F)c(Cl)c2)NC(=O)CN(C)C(=O)[C@H](CC2CCCCC2)N(C)C(=O)CN(C)C(=O)CN(C)C1=O [Compound 200] ([NMeL]I[Sar][Sar][NMeCha][Sar][hPhe(3-Cl-4-CF3)][NMeAla(cPr)][Ac5c][NMeChg][NMeD]-Piperidide; lactam N-11)

Ans:
[27, 140, 1, 82, 15, 13]

---

target.under.test: protein-protein interaction between Kras and SOS1 (biotin-tagged human Kras loaded with GDP, His-tagged human SOS1) (Homo sapiens (Human), UniProt P01116, G12D)
experiment.notes: Protein-protein interaction inhibition between Kras and SOS1 (KrasG12D-SOS PPI) using AlphaScreen;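 note: kras produced in E. coli, Ni-coupled donor beads and streptavidin acceptor beads, excitation 680 nm with emission detected at 520–620 nm via singlet oxygen transfer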
Assay type: biochemical
run.parameters: AlphaScreen; biotin-tagged human Kras loaded with GDP, His-tagged human SOS1; read-out: KRAS G12D-SOS PPI IC50
Bridge positions count the residues as written; N and C are the ends. Square brackets hold non-standard residues; d marks the D form. Peptide text beside a SMILES is read from it. * marks the point of attachment. hPhe(3-Cl-4-CF3) = N[C@@H](CCc1ccc(C(F)(F)F)c(Cl)c1)C(=O)O; NMeCha = CN[C@@H](CC1CCCCC1)C(=O)O; NMeD = CN[C@@H](CC(=O)O)C(=O)O; NMeL = CN[C@@H](CC(C)C)C(=O)O; NMeA = CN[C@@H](C)C(=O)O; Piperidide = C1CCN(*)CC1; Ac5c = NC1(C(=O)O)CCCC1; Aze = O=C(O)[C@@H]1CCN1; Sar = CNCC(=O)O
quantity.measured: pIC50
Answers are plain numbers, as −log10 of the molar value.

Q: For the compound CC[C@H](C)[C@@H]1NC(=O)[C@H](CC(C)C)N(C)C(=O)C[C@@H](C(=O)N2CCCCC2)N(C)C(=O)[C@H](CC(C)C)N(C)C(=O)C2(CCCC2)NC(=O)[C@@H]2CCCN2C(=O)[C@H](CCc2ccc(C(F)(F)F)c(Cl)c2)NC(=O)CN(C)C(=O)[C@H](CC2CCCCC2)N(C)C(=O)[C@@H]2CCN2C(=O)[C@H](C)N(C)C1=O [Compound 1657] ([NMeL]I[NMeA][Aze][NMeCha][Sar][hPhe(3-Cl-4-CF3)]P[Ac5c][NMeL][NMeD]-Piperidide; lactam N-11) , give its measured pIC50 value.
Ans: 8.55

Data provenance: patent US20240148821A1
